experimental.system: HDAC6 (Homo sapiens)
Sequence (Q9UBN7 1-1215): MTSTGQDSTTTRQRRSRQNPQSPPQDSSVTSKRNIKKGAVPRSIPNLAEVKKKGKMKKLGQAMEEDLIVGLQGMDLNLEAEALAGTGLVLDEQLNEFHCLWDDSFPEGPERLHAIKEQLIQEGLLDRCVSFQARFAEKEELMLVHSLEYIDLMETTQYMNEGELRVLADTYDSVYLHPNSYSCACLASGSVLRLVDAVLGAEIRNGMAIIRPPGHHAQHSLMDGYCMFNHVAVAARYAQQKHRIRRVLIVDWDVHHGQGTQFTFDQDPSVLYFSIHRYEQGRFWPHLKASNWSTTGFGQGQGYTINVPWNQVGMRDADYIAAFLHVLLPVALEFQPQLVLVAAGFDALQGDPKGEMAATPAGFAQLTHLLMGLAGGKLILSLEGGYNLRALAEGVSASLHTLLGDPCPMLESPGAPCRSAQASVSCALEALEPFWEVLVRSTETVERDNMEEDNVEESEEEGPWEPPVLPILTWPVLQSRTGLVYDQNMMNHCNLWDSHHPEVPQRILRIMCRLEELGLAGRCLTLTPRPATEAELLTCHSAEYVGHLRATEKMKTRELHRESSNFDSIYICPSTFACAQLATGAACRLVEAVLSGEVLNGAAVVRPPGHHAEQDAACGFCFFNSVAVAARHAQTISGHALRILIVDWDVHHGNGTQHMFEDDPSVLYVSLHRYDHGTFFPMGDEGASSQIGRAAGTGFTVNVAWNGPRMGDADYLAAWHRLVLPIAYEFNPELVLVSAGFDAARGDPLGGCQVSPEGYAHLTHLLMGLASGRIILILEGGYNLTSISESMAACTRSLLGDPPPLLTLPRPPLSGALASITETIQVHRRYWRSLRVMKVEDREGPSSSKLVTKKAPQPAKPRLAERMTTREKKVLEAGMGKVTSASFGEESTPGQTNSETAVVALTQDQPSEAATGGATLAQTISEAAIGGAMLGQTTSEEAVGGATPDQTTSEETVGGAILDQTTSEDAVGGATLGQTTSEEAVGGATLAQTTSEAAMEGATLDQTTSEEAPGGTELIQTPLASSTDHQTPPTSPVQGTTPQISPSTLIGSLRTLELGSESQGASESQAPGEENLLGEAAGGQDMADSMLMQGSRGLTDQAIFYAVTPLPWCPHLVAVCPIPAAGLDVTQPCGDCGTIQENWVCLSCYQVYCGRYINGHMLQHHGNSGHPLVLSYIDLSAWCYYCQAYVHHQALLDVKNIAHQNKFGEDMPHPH
assay.info: In vitro histone deacetylase assay: enzymatic HDAC6 electrophoretic mobility shift assay
study.conditions: full length human recombinant HDAC6, 1 nM enzyme, 2 μM peptide substrate RHKK(Ac)-NH2, 25° C.; read-out: Inhibitory Concentration (IC50) Values for Representative Compounds against HDAC6, Activity Range
Measured IC50 accompanies every entry in the list below.

Enquiry: May I ask what IC50 has been recorded for COc1ccc(CN2CCOc3cc(C(=O)NO)cnc3C2)cc1 ?
Return: 100 to 500 nM

Enquiry: May I ask what IC50 has been recorded for CC1CCCCN1C(=O)N1CCOc2cc(C(=O)NO)ccc2C1 (stereo not shown) ?
Return: ≤ 100 nM

Enquiry: May I ask what IC50 has been recorded for COc1ccc(NC(=O)N2CCOc3ccc(C(=O)NO)cc3C2)cc1 ?
Return: > 500 nM

Enquiry: May I ask what IC50 has been recorded for CN(C)CCN1CCOc2cc(C(=O)NO)ccc2C1 ?
Return: > 500 nM

Enquiry: May I ask what IC50 has been recorded for O=C1CN(Cc2ccc(Cl)cc2)Cc2cc(C(=O)NO)ccc2N1 ?
Return: ≤ 100 nM

Enquiry: May I ask what IC50 has been recorded for COc1ccc(CN2CCOc3ccc(C(=O)NO)cc3C2C)cc1 (stereo not shown) ?
Return: > 500 nM

Enquiry: May I ask what IC50 has been recorded for COc1ccc(CN2Cc3ccc(C(=O)NO)cc3OC[C@H]2C(C)C)cc1 ?
Return: ≤ 100 nM

Enquiry: May I ask what IC50 has been recorded for C[C@@H]1COc2cc(C(=O)NO)ccc2CN1 ?
Return: 100 to 500 nM

Enquiry: May I ask what IC50 has been recorded for C[C@H]1COc2cc(C(=O)NO)ccc2CN1C1CCCC1 ?
Return: 100 to 500 nM

Enquiry: May I ask what IC50 has been recorded for COc1ccc(NC(=O)N2CCOc3cc(C(=O)NO)cnc3C2)cc1 ?
Return: ≤ 100 nM

Further cases:
Enquiry: May I ask what IC50 has been recorded for CC(C)[C@H]1COc2cc(C(=O)NO)ccc2CN1C ?
Return: ≤ 100 nM

Enquiry: May I ask what IC50 has been recorded for COc1ccc(NC(=O)N2Cc3ccc(C(=O)NO)cc3O[C@@H](C)C2)cc1 ?
Return: ≤ 100 nM

Enquiry: May I ask what IC50 has been recorded for O=C1CN(Cc2cccnc2)Cc2cc(C(=O)NO)ccc2N1 ?
Return: 100 to 500 nM

Enquiry: May I ask what IC50 has been recorded for COc1ccc(S(=O)(=O)N2CCOc3cc(C(=O)NO)cnc3C2)cc1 ?
Return: 100 to 500 nM

Cited source: patent US11279681B2
